Test system: basil 'Genovese'
Test: Visual injury of basil after insecticide, fungicide, PGRs, safeners (Example 4)
Conditions: 28 DA-A, rates g ai/ha: chlropyrifos 1120, chlorothalonil 2630, paclobutrazol 3.23, mepiquat-chloride 12.3, Isoxadifen 8, Napthalic anhydride 264, + NIS 0.25 % v/v
1 (yes) means recorded Phytotoxicity Stunting is 5% or above; 0 (no) means it is below 5%.

Textbook exercise: given the entry O=C1OC(=O)c2cccc3cccc1c23 [napthalic anhydride] , state whether its Phytotoxicity Stunting is greater than or equal to 5%.
0 (no)

Record C[N+]1(C)CCCCC1 [mepiquat-chloride] ; criterion: Phytotoxicity Stunting no lower than 5%. Met?
0 (no)

Textbook exercise: given the entry CC(C)(C)[C@@H](O)[C@@H](Cc1ccc(Cl)cc1)n1cncn1 (racemic) [paclobutrazol] , state whether its Phytotoxicity Stunting is greater than or equal to 5%.
1 (yes)

Does the molecule N#Cc1c(Cl)c(Cl)c(Cl)c(C#N)c1Cl [chlorothalonil] have recorded Phytotoxicity Stunting that is 5% or more?
1 (yes)

For this molecule, is measured Phytotoxicity Stunting 5% or higher? CCOP(=S)(OCC)Oc1nc(Cl)c(Cl)cc1Cl [chlropyrifos]
1 (yes)

====

Task for the reader: assign each of the following compounds its reported Phytotoxicity Chlorosis.
Test system: kale 'Red Russian'
Test: Visual injury of kale after insecticide, fungicide, PGRs, safeners (Example 4)
Details: 28 DA-A, rates g ai/ha: chlropyrifos 3370, chlorothalonil 7900, paclobutrazol 9.7, mepiquat-chloride 37, + NIS 0.25 % v/v

Assign Phytotoxicity Chlorosis to the following record: CC(C)(C)[C@@H](O)[C@@H](Cc1ccc(Cl)cc1)n1cncn1 (racemic) [paclobutrazol]
0%

Tell me measured Phytotoxicity Chlorosis for C[N+]1(C)CCCCC1 [mepiquat-chloride] please.
3%

Name the recorded Phytotoxicity Chlorosis of the compound listed here: N#Cc1c(Cl)c(Cl)c(Cl)c(C#N)c1Cl [chlorothalonil]
0%

For the compound CCOP(=S)(OCC)Oc1nc(Cl)c(Cl)cc1Cl [chlropyrifos] , report Phytotoxicity Chlorosis.
3%

====

Test system: kale 'Red Russian'
Assay: Visual injury of kale after insecticide, fungicide, PGRs, safeners (Example 4)
Conditions: 28 DA-A, rates g ai/ha: chlropyrifos 3370, chlorothalonil 7900, paclobutrazol 9.7, mepiquat-chloride 37, + NIS 0.25 % v/v
Protocol: Greenhouse and laboratory studies were conducted to ascertain the tolerance and nutritional quality differences following postemergence applications of the insecticide chlorpyrifos, the fungicide chlorothalonil, the PGRs mepiquat-chloride and paclobutrazol, and the safeners napthalic anhydride and isoxadifen-ethyl on kale ‘Red Russian’ and basil ‘Genovese’. […]
Please go through the items and note down their Phytotoxicity General.
A number alone suffices; assume %.

Specify Phytotoxicity General for "CCOP(=S)(OCC)Oc1nc(Cl)c(Cl)cc1Cl" and stop.
3

Given the molecule "N#Cc1c(Cl)c(Cl)c(Cl)c(C#N)c1Cl" , write its reported Phytotoxicity General.
3

Supply recorded Phytotoxicity General for CC(C)(C)[C@@H](O)[C@@H](Cc1ccc(Cl)cc1)n1cncn1 (racemic) here.
4

Specify Phytotoxicity General for C[N+]1(C)CCCCC1 [mepiquat-chloride] and stop.
3

====

System: kale 'Red Russian'
Assay: Content analysis of kale: protein, amino acids, fiber, fatty acids, minerals (Example 4, Tables 12-14)
Format: in vivo
Details: 28 DA-A, second-listed rate g ai/ha: chlropyrifos ###, chlorothalonil ###, paclobutrazol 9.7, mepiquat-chloride 37, + NIS 0.3 % v/v
ASSAY_ENDPOINT: Total Amino acids, Percent Increase over the Untreated Check (on a % dry matter basis) (% check)
Could you give me the number in % check? Just the number is fine.

Please look at this compound and report its Total Amino acids, Percent Increase over the Untreated Check (on a % dry matter basis): CC(C)(C)[C@@H](O)[C@@H](Cc1ccc(Cl)cc1)n1cncn1 (racemic)
9

// fetch Total Amino acids, Percent Increase over the Untreated Check (on a % dry matter basis) given entry "CCOP(=S)(OCC)Oc1nc(Cl)c(Cl)cc1Cl"
7

Specify Total Amino acids, Percent Increase over the Untreated Check (on a % dry matter basis) for "N#Cc1c(Cl)c(Cl)c(Cl)c(C#N)c1Cl" and stop.
−4

Please list Total Amino acids, Percent Increase over the Untreated Check (on a % dry matter basis) recorded for the compound C[N+]1(C)CCCCC1 [mepiquat-chloride]
−2

====

Tested on: kale 'Red Russian'
Assay: Visual injury of kale after insecticide, fungicide, PGRs, safeners (Example 4)
Settings: 7 DA-A, rates g ai/ha: chlropyrifos 1120, chlorothalonil 2630, paclobutrazol 3.23, mepiquat-chloride 12.3, + NIS 0.25 % v/v
ASSAY_ENDPOINT: Phytotoxicity Chlorosis (%)
// note: answer is a bare numeric in %

Annotate the molecule C[N+]1(C)CCCCC1 [mepiquat-chloride] with its measured Phytotoxicity Chlorosis.
0

Report Phytotoxicity Chlorosis for CCOP(=S)(OCC)Oc1nc(Cl)c(Cl)cc1Cl [chlropyrifos]
1

Give the reported value of Phytotoxicity Chlorosis for this record: CC(C)(C)[C@@H](O)[C@@H](Cc1ccc(Cl)cc1)n1cncn1 (racemic) [paclobutrazol]
1

Provide measured Phytotoxicity Chlorosis value, entry: N#Cc1c(Cl)c(Cl)c(Cl)c(C#N)c1Cl [chlorothalonil]
0

====

Tested on: basil 'Genovese'
Test: Visual injury of basil after insecticide, fungicide, PGRs, safeners (Example 4)
Settings: 7 DA-A, rates g ai/ha: chlropyrifos 3370, chlorothalonil 7900, paclobutrazol 9.7, mepiquat-chloride 37, Isoxadifen 16, Napthalic anhydride 527, + NIS 0.25 % v/v
Lab note - cut at 5% for Phytotoxicity Chlorosis: Satisfied if strictly below, Not satisfied if not.

Threshold test, Phytotoxicity Chlorosis < 5%: "CCOP(=S)(OCC)Oc1nc(Cl)c(Cl)cc1Cl"
Not satisfied

Check if Phytotoxicity Chlorosis falls below 5% for "CCOC(=O)C1=NOC(c2ccccc2)(c2ccccc2)C1" .
Not satisfied

For O=C1OC(=O)c2cccc3cccc1c23 [napthalic anhydride] , is the recorded Phytotoxicity Chlorosis below the cut-off of 5%?
Satisfied

Threshold test, Phytotoxicity Chlorosis < 5%: "N#Cc1c(Cl)c(Cl)c(Cl)c(C#N)c1Cl"
Not satisfied

====

Field: Alanine, Percent Increase over the Untreated Check (on a % dry matter basis). Provide a value for each of the compounds that follow.
Tested on: kale 'Red Russian'
Assay: Content analysis of kale: protein, amino acids, fiber, fatty acids, minerals (Example 4, Tables 12-14)
Format: in vivo
Settings: 28 DA-A, second-listed rate g ai/ha: chlropyrifos ###, chlorothalonil ###, paclobutrazol 9.7, mepiquat-chloride 37, + NIS 0.3 % v/v
Method: Greenhouse and laboratory studies were conducted to ascertain the tolerance and nutritional quality differences following postemergence applications of the insecticide chlorpyrifos, the fungicide chlorothalonil, the PGRs mepiquat-chloride and paclobutrazol, and the safeners napthalic anhydride and isoxadifen-ethyl on kale ‘Red Russian’ and basil ‘Genovese’. […]
Don't forget the unit after the number, please.

Query Alanine, Percent Increase over the Untreated Check (on a % dry matter basis) for C[N+]1(C)CCCCC1 [mepiquat-chloride]
−4 % check

Please supply the value of reported Alanine, Percent Increase over the Untreated Check (on a % dry matter basis) for the item "CCOP(=S)(OCC)Oc1nc(Cl)c(Cl)cc1Cl"
6 % check

Determine its reported Alanine, Percent Increase over the Untreated Check (on a % dry matter basis): "N#Cc1c(Cl)c(Cl)c(Cl)c(C#N)c1Cl"
−5 % check

Quickly give me recorded Alanine, Percent Increase over the Untreated Check (on a % dry matter basis) for CC(C)(C)[C@@H](O)[C@@H](Cc1ccc(Cl)cc1)n1cncn1 (racemic)
4 % check
